Attribution: the nanobody polyreactivity screen of Harvey et al. (2022)

assay: yeast display, Sf9 membrane polyspecificity reagent, FACS + sequencing; frameworks hold sequencing errors
assay.metric: polyreactivity (PSR sort gate)

residue.sequence	assay.metric	value.measured
QVQLVESGGGLVQAGGRLPLSCAASGSTYSVNAMGWYRQAPGKERELVAAITRSGGSTYYADSVKGRFTISRDNAKNTVYLQMNSLNPEDTAVYYCAAEIYPLGEYWGQGTQVTVSS	polyreactivity (PSR sort gate)	low polyreactivity
QVQHVESGGGLGQAGGILRLSCAGCGRTFVRYAMGWYRQAPGNERELVAAITRSASTYYADSVKGRFTISRDNAKKTVDLQMTSLKPEDTSVYYCNAVWSRYRDLDFWGQGTQVTVSS	polyreactivity (PSR sort gate)	high polyreactivity
QVQLEESGGGLVQAGGSLRLSCSASGRIFIKYAMGWYRQAPGKEREFVAAISGRGGSTYYADSVKGRFTISRDNAKNTVYLQMNSLKPEDTAVYYWAKRFFSTGTAAGMYYWGQGTQVTVSS	polyreactivity (PSR sort gate)	high polyreactivity
QVQLVESGGGLVHAGGSLRLSCAASGRIFTYYGMGWYRQAPGKERELVAAITWNGGSTYYADSVKGRFTISRDNAKNTVYLQMNSLKPEDTAVYYCNAVVYARSGGAQYGYWGQGTQVTVSS	polyreactivity (PSR sort gate)	low polyreactivity
QVQLVESGGGLVQAGGSLRLSCAASGSTFYYYAMGGYRQAPGKERELVAAINDAGGTNYADSVKGRFTISRDNAKNTVYLQMNSLKPEDTAVYYCAADGRIYLTYHEMEYWGQVTQVTVSS	polyreactivity (PSR sort gate)	low polyreactivity
QVQLVESGGGLVQAGGSLRLSCAASGRPFVGNVMGWYRQAPGKERELVDAITRTAGSTYYADSVKGRFTISRDNAKNTVYLEMNSLKPEDTAVDYCAVEGIYRWYDYSWYYTSTYDYWGQGTQVTVSS	polyreactivity (PSR sort gate)	low polyreactivity
QVQLVESGGGLVQAGGSLRLSCAASGSTFVIYGKGWYRQAPGKERELVASISGSGGSTFYADSVKGRFTISRDNAKITVYLEMNSRKPEDTAVYYCAAAVGVGRSGGTYDYWGQGTQVTVSS	polyreactivity (PSR sort gate)	low polyreactivity
QVQLVESGGGLVQAGGSLRLSCAASGRIFATYAMGWSRQAPGKERELVAAISDGGGITYYADSVKGRFTISRDNAKNTVYLQMNSLKPDDTAVYYCARTYARYNFGYWGQGTQVTVSS	polyreactivity (PSR sort gate)	low polyreactivity
QVQLVESGGGLVQAGGSLRLSCAASGPTFFYYAMGWYRQAPGKERELVAAIRRSGGRTRYADSVKGRFTISRDNAKNTVYLQMNSLKPEDTAVYYCAADDGTHRRGYDYWGQGTQVTVSS	polyreactivity (PSR sort gate)	low polyreactivity
QVQLVESGGGLVQAGGSLRLSCAASGFIFTWYAMGWYRQAPGKEREFVAGISRSGGRTYYADSVKGRFTISRDNAKNTVYLHVNSLKPEVTAVFYCGAKYYIGFWLRDYYYWGQCTQVTVSS	polyreactivity (PSR sort gate)	high polyreactivity
QVQLVESGGGLVQAGGSLRLSCAASGSIFYYYTMGWYRPAPGKERELVASITGGGSTYYADSVKGRFTISRDNAKNTVYLQMNSLKPDDTAVYYCAAYRYGVTNAYGYWGQGTQVTVSS	polyreactivity (PSR sort gate)	high polyreactivity
QVQLVESGGGLVQAGGSLRLSCAASGSTFESYAMVWYRQAPGKERELVAAISRRGGRTYYADSVKGRFTISRDNAKNTVYLQMNSLKPEDTAVYYCATDSSYYGSDDYWGQGTQVTVSS	polyreactivity (PSR sort gate)	high polyreactivity
QVQLVESGGGLVQAGGSLRLSCAASGIIFSHYAMGWYRQAPGKERELVAAISSRGGSTYYADSVKGRFTISRDNAKNTVYLQMNSLKPEDTAVYYCNAKWTSHGTYAEDYWGQGTQVTVSS	polyreactivity (PSR sort gate)	high polyreactivity
QVQLVESGGCLVQAGGSLRLSCAASGRIFNYNAMGWYRQAPGKARELVAVITSGDSTNYADSVKGRFTISRDNAKNNVYLQMNSLKPEDTAVYYCAAEYYSIRYGPHSIEVYGMDYWGQGTQVTVSS	polyreactivity (PSR sort gate)	low polyreactivity
QVQLLESGGGLVQAGGSHRLSCAASGRIFGSNAMGWYRQAPGKERELVAAITRGGSTNYADSVKGRFTISLDNAKNTVYLQMNSLKPEDTAVYYCAVRWYRKYNYWGQGTQVTVSS	polyreactivity (PSR sort gate)	high polyreactivity
QVQLVESGGGLVQAGGSLRLSCAASGGIFVANAMGWYRQAPGKERELVAAISRSGGSTYYADSVKGRFTISRDNAKNTVYLQMKSLKPEDTAVYYCAAKSRRQFTVGLTSDYRGQGTQVTVSS	polyreactivity (PSR sort gate)	high polyreactivity
QVQLVESGGGLVQAGGSLRLSCAASGSILYRNAMGWYRQAPGKEREFVAAISWRGGSTYYADSVKGRFTISRDNAKNTVYLQMNSLKPEDTAVYYCAKGGYRSPPGRYDGYYWGQGTQVTVSS	polyreactivity (PSR sort gate)	high polyreactivity
QVQLVESGGGLVQAGGSLRLSCAASGSIFYGYAMGWYRQAPGKERELVAVISRRGDSTYYADSVKGRFTISRDNAKNSVYLQMNSLKPEDTAVYYCASYGSLSKGFGYWGQGTQVTVSS	polyreactivity (PSR sort gate)	low polyreactivity
QVQLVESGGGLVQAGGSLRLSCAASGRIFPYYAMGWYRQAPGKERELVAAISLSGGSTYYADSVKGRFTISRDNAKNTVYLQMNSLKPEDTAVYYCNAVASTYGYYWYPGLGYDYWGQGTQVTVSS	polyreactivity (PSR sort gate)	low polyreactivity
QVQLVESGGGLVQAGGSLRLSCAASGITFFYNAMGWYRQAPGKERELVAAISTSGGSTHYADSVKGRFTISRDIAKNTVYLQMNSLKPEDTAVYYCAARGRYRLYGYWGQGTQVTVSS	polyreactivity (PSR sort gate)	high polyreactivity
QVQLVESGGGLVQAGGSLRLSCAASGFIFLAYTMGWYRQAPGKERELVAAISTSGGSTYYEDSVKGRFTISRDNAKNTVYLQMNSLKPEDTAVYYCAARYRWGRYDYWGQGTQVTVSS	polyreactivity (PSR sort gate)	high polyreactivity
